Just for reference, patent US20230158025A1 is where these values come from.

Target: recombinant human GALK1 (Homo sapiens)
Sequence (P51570 whole entry): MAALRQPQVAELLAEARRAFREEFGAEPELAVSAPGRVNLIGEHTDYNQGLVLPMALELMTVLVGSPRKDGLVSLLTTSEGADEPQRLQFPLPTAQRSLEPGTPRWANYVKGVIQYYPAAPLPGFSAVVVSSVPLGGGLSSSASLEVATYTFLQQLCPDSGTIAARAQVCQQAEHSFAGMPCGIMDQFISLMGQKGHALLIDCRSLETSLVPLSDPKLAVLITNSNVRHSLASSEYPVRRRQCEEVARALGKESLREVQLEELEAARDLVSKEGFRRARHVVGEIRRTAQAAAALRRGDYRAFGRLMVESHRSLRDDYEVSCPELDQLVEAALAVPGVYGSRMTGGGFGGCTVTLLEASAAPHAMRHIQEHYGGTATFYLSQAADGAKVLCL
Experiment: hGALK1 biochemical activity assay (Kinase-Glo Plus, ATP depletion)
Settings: recombinant human GALK1, Kinase-Glo Plus ATP depletion; bracketed figure in the cell, e.g. (−1.2), is not defined in the text shown; read-out: hGALK
MEASURE_NAME: IC50 (µM)

Answered examples (3):
CC1=C(C(=O)Nc2nncs2)C(c2ccccc2Br)N=C(Nc2nc3ccccc3o2)N1 (centres unmarked)
4.32
CC1=C(C(=O)Nc2nncs2)C(c2ncccc2Cl)N=C(Nc2nc3ccccc3o2)N1 (centres unmarked)
6.85
O=C(O)CNC(=O)C1CC(=O)C2=C(C1)NC(Nc1nc3ccccc3o1)=NC2c1ccccc1Cl (centres unmarked)
3.43

(P) O=C1CC(C(=O)NCCO)CC2=C1C(c1ccccc1Cl)N=C(Nc1nc3ccccc3o1)N2 (centres unmarked)
(Q) CC1=C(C(=O)Nc2nncs2)C(c2n[nH]cc2Cl)N=C(Nc2nc3ccccc3o2)N1 (centres unmarked)
INPUT: // select label with min value of measured IC50 from [ P , Q ] Write down the label attached to your selection.
OUTPUT: P

(1) CC1=C(C(=O)Nc2nncs2)C2(CCOC2)N=C(Nc2nc3ccccc3o2)N1 (centres unmarked)
(2) O=C1CC(C(=O)N2CCNCC2)CC2=C1C(c1ccccc1Cl)N=C(Nc1nc3ccccc3o1)N2 (centres unmarked)
INPUT: // select label with min value of measured IC50 from [ 1 , 2 ] Write down the label attached to your selection.
OUTPUT: 2
(2: 6.85 µM, 1: 12.2 µM)

###

Target: hGALK1m (Homo sapiens, UniProt P51570, E253A/K252A)
Construct: made in house; host or cells: E. coli HMS174
Sequence (P51570 whole entry K252A/E253A): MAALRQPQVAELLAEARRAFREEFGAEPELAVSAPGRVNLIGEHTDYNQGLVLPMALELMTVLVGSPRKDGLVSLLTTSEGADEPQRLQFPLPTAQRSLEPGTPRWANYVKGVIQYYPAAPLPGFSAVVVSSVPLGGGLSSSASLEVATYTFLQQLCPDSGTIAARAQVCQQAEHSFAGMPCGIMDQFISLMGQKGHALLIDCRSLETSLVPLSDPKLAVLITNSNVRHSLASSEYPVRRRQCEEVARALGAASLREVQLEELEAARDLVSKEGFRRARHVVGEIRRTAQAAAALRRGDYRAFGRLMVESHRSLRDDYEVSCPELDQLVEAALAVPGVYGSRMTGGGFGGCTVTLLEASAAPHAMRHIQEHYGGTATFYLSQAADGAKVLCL
Experiment: in vitro hGALK1 activity assay of the structure-based optimisation (Example 12, Tables 17-20)
Type: biochemical
Conditions: Table 17, amide group optimization; no unit in table
pIC50: −log10 of the molar value.
MEASURE_NAME: pIC50

CC1=C(C(=O)Nc2nncs2)C(c2ccccc2Cl)N=C(Nc2nc3ccccc3o2)N1 (stereo not shown) [Compound 205]
5.47

(a) CC1=C(C(=O)Nc2cccc(C(=O)O)c2)C(c2ccccc2Cl)N=C(Nc2nc3ccccc3o2)N1 (stereo not shown) [Compound 142]
(b) CC1=C(C(=O)Nc2ccccc2)C(c2ccccc2Cl)N=C(Nc2nc3ccccc3o2)N1 (stereo not shown) [Compound 137]
(c) CC1=C(C(=O)Nc2ccc(C(=O)O)cc2)C(c2ccccc2Cl)N=C(Nc2nc3ccccc3o2)N1 (stereo not shown) [Compound 143]
INPUT: Sort ascending by pIC50. Lab note: record answer as labels in requested order.
OUTPUT: b, a, c

###

Experiment: aqueous kinetic solubility
Conditions: aqueous kinetic solubility
MEASURE_NAME: Sol. (µg/mL)

CCn1cc(CNC(=O)C2=C(C)NC(Nc3nc4cccc(N)c4o3)=NC2c2ccc(Cl)cc2Cl)cn1 (stereo not shown)
4.6
CC1=C(C(=O)NCc2cnn(C)c2)C(c2ccc(Cl)cc2Cl)N=C(Nc2nc3ccc(F)c(N)c3o2)N1 (stereo not shown)
5.9

###

Experiment: aqueous kinetic solubility
MEASURE_NAME: Sol. (µg/mL)

CC1=C(C(=O)Nc2cc(C(=O)O)ccn2)C(c2ccccc2Cl)N=C(Nc2nc3cccc(Cl)c3o2)N1 (stereo not shown)
57.5

(1) CC1=C(C(=O)Nc2cc(C(=O)O)ccn2)C(c2cccc(C(F)(F)F)c2Cl)N=C(Nc2nc3ccc(F)cc3o2)N1 (stereo not shown)
(2) CC1=C(C(=O)Nc2cc(C(N)=O)ccn2)C(c2ccccc2Cl)N=C(Nc2nc3ccc(F)cc3o2)N1 (stereo not shown)
INPUT: Given 1 and 2 , report the one with the higher recorded Sol.. Write down the label attached to your selection.
OUTPUT: 1
(1: 70.1 µg/mL, 2: 2.4 µg/mL)
